B1: library; numbered along this chain (parent)
chain: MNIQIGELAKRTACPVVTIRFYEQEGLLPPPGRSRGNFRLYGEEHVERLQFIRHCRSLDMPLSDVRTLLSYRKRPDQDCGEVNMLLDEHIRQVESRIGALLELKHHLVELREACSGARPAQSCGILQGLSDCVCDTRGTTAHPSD

Variants of: B1
Test Method Notes: sfGFP reporter fluorescence (15 h) (µM FITC); higher = stronger transcriptional activation
Test Context: library round: Round 0; ligand: 30 µM Zn
Parameter threshold = 0.4. Response is class 1 when sfGFP reporter fluorescence meets or exceeds it, else class 0.

Examples with answers:
{"Mutation Descriptor": "L68F", "Category Label": "class 1"}
{"Mutation Descriptor": "G6N", "Category Label": "class 0"}
{"Mutation Descriptor": "I90S", "Category Label": "class 0"}

// query Test whether the variant R111Q records sfGFP reporter fluorescence of 0.4 or higher.
// result class 0

// query Test whether the variant L126V records sfGFP reporter fluorescence of 0.4 or higher.
// result class 0

// query Test whether the variant P143R records sfGFP reporter fluorescence of 0.4 or higher.
// result class 1

// query Test whether the variant E7N records sfGFP reporter fluorescence of 0.4 or higher.
// result class 1
